Documented koff across a set of binders
# target_of_assay: T1, sIL-6R (soluble IL-6 receptor; SBH Sciences) (human, UniProt P08887 20-365)
# T1 construct: also called human IL-6R
# T1 sequence: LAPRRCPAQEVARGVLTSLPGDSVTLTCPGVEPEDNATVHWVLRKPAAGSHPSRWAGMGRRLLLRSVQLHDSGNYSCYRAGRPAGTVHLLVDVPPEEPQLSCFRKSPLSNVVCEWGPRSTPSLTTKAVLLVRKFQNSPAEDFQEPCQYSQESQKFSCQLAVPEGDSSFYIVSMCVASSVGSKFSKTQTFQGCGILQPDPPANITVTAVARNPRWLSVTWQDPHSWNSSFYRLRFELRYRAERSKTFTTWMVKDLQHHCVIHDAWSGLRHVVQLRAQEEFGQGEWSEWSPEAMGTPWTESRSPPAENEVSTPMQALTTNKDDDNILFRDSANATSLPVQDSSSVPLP
# method: SPR (BIAcore 3000), antibody on chip, sIL-6R analyte, pH 7.4
# Experimental: All SPR measurements were performed on a BIAcore 3000 instrument (GE Biosciences, Piscataway, N.J.). BIAcore Software-BIAcore 3000 Control Software V3.2 was used for the operation and control of the BIAcore 3000 instrument. […] Data was analyzed by using the Kinetics Wizard and the manual fitting programs that are both included with the BiaEvaluation Software V4.1. […]
Answer with a number only, understood to be in s⁻¹.

[[record]]
binder = "Tocilizumab (antibody, human IgG1, kappa, V domains shown, also called 25; 25(control)) VH: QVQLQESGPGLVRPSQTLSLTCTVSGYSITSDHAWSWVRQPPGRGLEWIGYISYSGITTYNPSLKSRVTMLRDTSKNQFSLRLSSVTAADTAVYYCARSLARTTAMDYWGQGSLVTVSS VL: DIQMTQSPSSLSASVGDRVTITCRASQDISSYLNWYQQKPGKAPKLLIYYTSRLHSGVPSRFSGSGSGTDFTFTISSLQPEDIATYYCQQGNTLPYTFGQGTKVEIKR"
value_kind = "koff"
unit_symbol = "s⁻¹"
observed_measurement = 0.000341

[[record]]
binder = "231# (antibody, human IgG1, kappa, V domains shown, also called Sample # 231) VH: QVQLQESGPGLVRPSQTLSLTCTVSGYSITSDHAWSWVRQPPGRGLEWIGYISYSGITTYNPSLKSRVTMLRDTSKNQFSLRLSSVTAADTAVYYCARTLARMTAIDFWGQGSLVTVSS VL: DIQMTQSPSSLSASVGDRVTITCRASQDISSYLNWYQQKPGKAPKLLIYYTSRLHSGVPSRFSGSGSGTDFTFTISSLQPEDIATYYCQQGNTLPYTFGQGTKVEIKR"
value_kind = "koff"
unit_symbol = "s⁻¹"
observed_measurement = "1.48e-07"


Recorded koff for 237# (antibody, human IgG1, kappa, V domains shown, also called Sample # 237) VH: QVQLQESGPGLVRPSQTLSLTCTVSGYSITSDHAWSWVRQPPGRGLEWIGYISYSGMTTYNPSLKSRVTMLRDTSKNQFSLRLSSVTAADTAVYYCARCLARTTAMDYWGQGSLVTVSS VL: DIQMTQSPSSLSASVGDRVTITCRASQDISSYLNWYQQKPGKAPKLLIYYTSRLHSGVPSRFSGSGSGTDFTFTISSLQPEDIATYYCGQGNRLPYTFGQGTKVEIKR , please?
1.01e-05

Can you check 209# (antibody, human IgG1, kappa, V domains shown, also called Sample # 209) VH: QVQLQESGPGLVRPSQTLSLTCTVSGYSITSDHAWSWVRQPPGRGLEWIGFISYSGMTTYNPSLKSRVTMLRDTSKNQFSLRLSSVTAADTAVYYCARSLARITAIDFWGQGSLVTVSS VL: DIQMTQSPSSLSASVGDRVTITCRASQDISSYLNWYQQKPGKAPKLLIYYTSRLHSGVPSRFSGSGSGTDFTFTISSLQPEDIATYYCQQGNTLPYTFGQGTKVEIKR next?
1.37e-07
